All values here come from the supplement of paper PMC9170038.

Exercise: state measured apparent KD of MS2 coat protein for each of the sequences provided.
System: MS2 coat protein
Assay: apparent KD of MS2 coat protein; designed switch direction (-1 OFF switch, 1 ON switch): 1; higher = weaker reporter binding
Details: input ligand: FMN 200 uM
Hey, just the number and the unit after it is fine.

Some solved entries appear below for comparison.
GUGGCCUAGGCACAGGAUAUGUUUCUCGUAACAUGAGGAUCACCCAUGUGCCUUUGAGAUUUUAUGCAGAAGGGUGCACGCCACG [JL Atiinbe mod 04] (Eterna round: R96, puzzle: Same State 2): 21.1 nM
UCGGGCGUACUUGCUGACAUGAGGAUCACCCAUGUCCUUGGGAAGGAUAUGGUUCCGUUUCGGUUCCAGAAGGUCCUGGCUGCU [salish99_SSNG3_r04_317] (Eterna round: R96, puzzle: Same State NG 3): 30.1 nM

Here's the next entry for you.
Query block: May I ask what apparent KD of MS2 coat protein has been recorded for GGCAAUAUCACAGGAUAUUGGAAAGGAAGUGUACAAGAAGGGUGAUAGUGCCUCAGCAACAUGAGGAUCACCCAUGUACUGAGC [PowerStrip SSNG 1.29] (Eterna round: R96, puzzle: Same State NG 1) ?
Result block: 121 nM
